- Method: Pharmacokinetics of TXA in swine plasma after IV and IM administration
- Type: in vivo, domestic pigs
- Settings: pig, plasma, iv, 1 g, swine Group 2: 1 g TXA IV; read-out: mean Tmax (converted)
Measurement Name: Tmax (min)
Answer format: numeric, min implied, no suffix.

Please indicate Tmax recorded for "NC[C@H]1CC[C@H](C(=O)O)CC1"
11.2

====

- Method: Pharmacokinetics of TXA in swine plasma after IV and IM administration
- Format: in vivo, domestic pigs
- Settings: pig, plasma, iv, 1 g; read-out: Cmax range
Measurement Name: Cmax

Read off the recorded Cmax for "NC[C@H]1CC[C@H](C(=O)O)CC1"
40.9 to 78.5 µg/mL

====

- Method: Pharmacokinetics of TXA in swine plasma after IV and IM administration
- Format: in vivo, domestic pigs
- Settings: pig, plasma, im, 1 g, swine Group 3: 1 g TXA IM; read-out: mean Tmax (converted)
Measurement Name: Tmax (min)
Dear colleague, please return just the value in min, with no unit written.

Supply recorded Tmax for NC[C@H]1CC[C@H](C(=O)O)CC1 [TXA] here.
44

====

- Method: Pharmacokinetics of TXA in swine plasma after IV and IM administration
- Assay type: in vivo, domestic pigs
- Settings: pig, plasma, im, 2 g, swine Group 4: 2 g TXA IM, n=5; read-out: mean AUCINF_pred (converted)
Measurement Name: AUC(0-inf) (µg·h/mL)
Give just the number in µg·h/mL; leave the unit off.

Could you please provide reported AUC(0-inf) for NC[C@H]1CC[C@H](C(=O)O)CC1 [TXA] ? Thanks!
141

Cited source: patent US12636249B2
